- METHOD SUMMARY: In vitro metabolic stability in mouse liver homogenate at 37° C.
- Assay type: in vitro ADME
- APPLIED CONDITIONS: female, Tac:NCr:Foxn1nu/nu, mouse, tissue homogenate, pH 7.2; liver homogenate at 37° C. for 60 min; mean ± SD, n = 3; read-out: % remaining (% of parent remaining)
RECORDED ENDPOINT: remaining at 1 h, 0.3 mg/mL (%)
Kindly answer with a numeric value in %, unit omitted.

Asked: Query (compound): N=C(N)NCCC[C@H](NC(=O)[C@@H](Cc1ccc2ccccc2c1)NC(=O)CN1CCN(CC(=O)O)CCN(CC(=O)O)CCN(CC(=O)O)CC1)C(=O)N[C@@H](Cc1c[nH]c2ccccc12)C(=O)N[C@@H](CO)C(=O)N[C@@H](Cc1c[nH]cn1)C(=O)N[C@H](CCCNC(=N)N)C(=O)N[C@@H](Cc1c[nH]c2ccccc12)C(=O)N[C@@H](Cc1ccc(C(=O)c2ccccc2)cc1)C(=O)N1CSC[C@H]1C(N)=O ; field requested: remaining at 1 h, 0.3 mg/mL
Given back: 98.5
